System Under Test: HRV3C (Human rhinovirus 14)
Construct: SARS-Cov-2 3CLpro and HRV3C Duplex Assay
Sequence (P03303 1538-1719): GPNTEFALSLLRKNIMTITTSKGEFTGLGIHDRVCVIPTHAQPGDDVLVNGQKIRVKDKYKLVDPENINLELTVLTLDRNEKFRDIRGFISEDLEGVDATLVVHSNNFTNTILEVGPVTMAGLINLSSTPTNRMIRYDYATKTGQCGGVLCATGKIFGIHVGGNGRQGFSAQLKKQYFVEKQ
Experiment Notes: biochemical
Recorded Conditions: HRV3C, duplex assay, 30 mins preincubation; class symbols; read-out: HRV IC50

Molecule: O=C(NC1CC1)C(=O)[C@H](C[C@@H]1CCNC1=O)NC(=O)[C@@H]1CC2(CCN1C(=O)c1csc(-c3ccccc3)n1)CC2
IC50: 0.2 to 2 µM

Molecule: O=C(NC1CC1)C(=O)[C@H](C[C@@H]1CCNC1=O)NC(=O)[C@@H]1CC2(CCN1C(=O)c1csc(-c3cccc(Cl)c3)n1)CC2
IC50: 2 to 20 µM

Molecule: O=C(NC1CC1)C(=O)[C@H](C[C@@H]1CCNC1=O)NC(=O)[C@@H]1CC2(CCN1C(=O)C1Cc3ccccc3C1)CC2
IC50: 0.2 to 2 µM

Molecule: O=C(NC1CC1)C(=O)[C@H](C[C@@H]1CCNC1=O)NC(=O)[C@@H]1CC2(CCN1C(=O)c1ncc(-c3ccccc3)s1)CC2
IC50: 0.2 to 2 µM

Molecule: Cn1c(C(=O)N2CCC3(CC3)C[C@H]2C(=O)N[C@@H](C[C@@H]2CCNC2=O)C(=O)C(=O)NC2CC2)nc2ccccc21
IC50: 2 to 20 µM

Molecule: Cn1nc2ccccc2c1C(=O)N1CCC2(CC2)C[C@H]1C(=O)N[C@@H](C[C@@H]1CCNC1=O)C(=O)C(=O)NC1CC1
IC50: 0.2 to 2 µM

Molecule: Cn1ncc2c1CC(C(=O)N1CCC3(CC3)C[C@H]1C(=O)NC(C[C@@H]1CCNC1=O)C(=O)C(=O)NC1CC1)CC2 (stereo partly shown)
IC50: 0.2 to 2 µM

Molecule: O=C(NC1CC1)C(=O)C(C[C@@H]1CCNC1=O)NC(=O)[C@@H]1CC2(CCN1C(=O)c1cc3cccc(Cl)c3s1)CC2 (stereo partly shown)
IC50: 0.02 to 0.2 µM

Molecule: O=C(NC1CC1)C(=O)[C@H](C[C@@H]1CCNC1=O)NC(=O)[C@@H]1CC2(CCN1C(=O)c1cc3ccccc3n1C1CC1)CC2
IC50: 2 to 20 µM

Molecule: O=C(NC1CC1)C(=O)C(C[C@@H]1CCNC1=O)NC(=O)[C@@H]1[C@@H]2C[C@@H](CC23CC3)N1C(=O)c1cc2ccccc2s1 (stereo partly shown)
IC50: 0.2 to 2 µM

Molecule: Cc1ccc2cc(C(=O)N3CCC4(CC4)C[C@H]3C(=O)N[C@@H](C[C@@H]3CCNC3=O)C(=O)C(=O)NC3CC3)sc2c1
IC50: 2 to 20 µM

Molecule: Cn1c(C(=O)N2CCC3(CC3)C[C@H]2C(=O)N[C@@H](C[C@@H]2CCNC2=O)C(=O)C(=O)NC2CC2)cc2ccc(Cl)cc21
IC50: 2 to 20 µM

Molecule: Cn1nc(C(=O)N2CCC3(CC3)C[C@H]2C(=O)NC(C[C@@H]2CCNC2=O)C(=O)C(=O)NC2CC2)cc1-c1ccccc1 (stereo partly shown)
IC50: 2 to 20 µM

Molecule: O=C(NC1CC1)C(=O)[C@H](C[C@@H]1CCNC1=O)NC(=O)[C@@H]1CC2(CCN1C(=O)c1nc(-c3ccccc3)cs1)CC2
IC50: 2 to 20 µM

Molecule: CC(C)n1c(C(=O)N2CCC3(CC3)C[C@H]2C(=O)N[C@@H](C[C@@H]2CCNC2=O)C(=O)C(=O)NC2CC2)cc2ccccc21
IC50: 0.2 to 2 µM

Molecule: O=C(NC1CC1)C(=O)[C@H](C[C@@H]1CCNC1=O)NC(=O)[C@@H]1CC2(CCN1C(=O)c1ccc3c(c1)OCO3)CC2
IC50: 2 to 20 µM

Molecule: COc1cccc(-c2csc(C(=O)N3CCC4(CC4)C[C@H]3C(=O)N[C@@H](C[C@@H]3CCNC3=O)C(=O)C(=O)NC3CC3)n2)c1
IC50: 2 to 20 µM

Molecule: O=C(NC1CC1)C(=O)C(C[C@@H]1CCNC1=O)NC(=O)[C@@H]1[C@@H]2C[C@@H](CC23CC3)N1C(=O)c1nc(-c2ccccc2)cs1 (stereo partly shown)
IC50: 0.2 to 2 µM

Molecule: O=C(NC1CC1)C(=O)[C@H](C[C@@H]1CCNC1=O)NC(=O)[C@@H]1CC2(CCN1C(=O)[C@@H]1CCCc3ccccc31)CC2
IC50: 0.2 to 2 µM

Molecule: O=C(NC1CC1)C(=O)[C@H](C[C@@H]1CCNC1=O)NC(=O)[C@@H]1CC2(CCN1C(=O)c1ccc3ccccc3c1)CC2
IC50: 0.2 to 2 µM

Molecule: COc1ccc2cc(C(=O)N3CCC4(CC4)C[C@H]3C(=O)N[C@@H](C[C@@H]3CCNC3=O)C(=O)C(=O)NC3CC3)n(C)c2c1
IC50: 2 to 20 µM

Molecule: O=C(NC1CC1)C(=O)[C@H](C[C@@H]1CCNC1=O)NC(=O)[C@@H]1CC2(CCN1C(=O)[C@@H]1C[C@H]1c1ccccc1)CC2
IC50: 0.2 to 2 µM

* * *

Listing of entries alongside the reported CC50 at 6 days.
Experiment Notes: Cytotoxicity plates without OC43 virus in HeLa cells
Format: cell-based
Recorded Conditions: human, HeLa cells (uninfected), class symbols
Reported Endpoint: CC50 at 6 days

Compound: O=C(NC1CC1)C(=O)[C@H](C[C@@H]1CCNC1=O)NC(=O)[C@@H]1CC2(CCN1C(=O)c1ccc3ccccc3c1)CC2 [Compound 21]
Test Value: ≥ 100 µM
//
Compound: O=C(NC1CC1)C(=O)C(C[C@@H]1CCNC1=O)NC(=O)[C@@H]1CC2(CCN1C(=O)c1cc3cccc(Cl)c3s1)CC2 (stereo partly drawn) [Example 12]
Test Value: 10 to 100 µM
//
Compound: Cn1cc(C(=O)N2CCC3(CC3)C[C@H]2C(=O)N[C@@H](C[C@@H]2CCNC2=O)C(=O)C(=O)NC2CC2)c2ccccc21 [Example 11]
Test Value: ≥ 100 µM

* * *

Test system: SARS-CoV-2-GHB-03021/2020
Experiment Notes: microbe, parasite or virus in culture
Assay type: cell-based
Recorded Conditions: Severe acute respiratory syndrome coronavirus 2, Vero C1008, 96 h, read-out: VeroE6 + CP (EC50)
pEC50: −log10 of the molar value.
Entries and their pEC50

Compound: O=C(NC1CC1)C(=O)C(C[C@@H]1CCNC1=O)NC(=O)[C@@H]1CC2(CCN1C(=O)c1cc3ccccc3n1-c1ccccc1)CC2 (some centres unmarked)
pEC50: > 6.00

Compound: O=C(NC1CC1)C(=O)[C@H](C[C@@H]1CCNC1=O)NC(=O)[C@@H]1CC2(CCN1C(=O)[C@H]1C[C@@]13CCCc1ccccc13)CC2 (relative stereo) [Compound 34A]
pEC50: 5.00 to 6.00

* * *

Reported CC50 at 6 days by item:
Experiment Notes: Cytotoxicity plates without OC43 virus in HeLa cells
Assay type: cell-based
Recorded Conditions: human, HeLa cells (uninfected), class symbols
Reported Endpoint: CC50 at 6 days

Compound: O=C(NC1CC1)C(=O)[C@H](C[C@@H]1CCNC1=O)NC(=O)[C@@H]1CC2(CCN1C(=O)c1csc(-c3cccc(Cl)c3)n1)CC2
Reported Endpoint: CC50 at 6 days
Test Value: 10 to 100 µM
--
Compound: Cn1c(C(=O)N2CCC3(CC3)C[C@H]2C(=O)N[C@@H](C[C@@H]2CCNC2=O)C(=O)C(=O)NC2CC2)cc2ccc(Cl)cc21
Reported Endpoint: CC50 at 6 days
Test Value: ≥ 100 µM
--
Compound: O=C(NC1CC1)C(=O)C(C[C@@H]1CCNC1=O)NC(=O)[C@@H]1CC2(CCN1C(=O)c1cnn(-c3ccccc3)n1)CC2 (stereo partly drawn)
Reported Endpoint: CC50 at 6 days
Test Value: ≥ 100 µM
--
Compound: O=C(NC1CC1)C(=O)C(C[C@@H]1CCNC1=O)NC(=O)[C@@H]1[C@@H]2C[C@@H](CC23CC3)N1C(=O)c1cc2ccccc2s1 (stereo partly drawn)
Reported Endpoint: CC50 at 6 days
Test Value: ≥ 100 µM
--
Compound: O=C(NC1CC1)C(=O)[C@H](C[C@@H]1CCNC1=O)NC(=O)[C@@H]1CC2(CCN1C(=O)c1ccc3c(c1)OCO3)CC2
Reported Endpoint: CC50 at 6 days
Test Value: ≥ 100 µM
--
Compound: O=C(NC1CC1)C(=O)[C@H](C[C@@H]1CCNC1=O)NC(=O)[C@@H]1CC2(CCN1C(=O)c1cn3ccccc3n1)CC2
Reported Endpoint: CC50 at 6 days
Test Value: ≥ 100 µM

* * *

System Under Test: human cathepsin L (Homo sapiens, UniProt P07711)
Sequence (P07711 114-333): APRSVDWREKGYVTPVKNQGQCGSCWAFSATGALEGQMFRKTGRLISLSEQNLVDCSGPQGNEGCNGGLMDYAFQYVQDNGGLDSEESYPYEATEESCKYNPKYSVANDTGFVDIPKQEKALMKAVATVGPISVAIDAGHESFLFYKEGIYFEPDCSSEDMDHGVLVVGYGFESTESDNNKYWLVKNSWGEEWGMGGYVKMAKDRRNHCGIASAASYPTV
Reported IC50 by item:
Reported Endpoint: IC50

Compound: Cn1nc(C(=O)N2CCC3(CC3)C[C@H]2C(=O)NC(C[C@@H]2CCNC2=O)C(=O)C(=O)NC2CC2)cc1-c1ccccc1 (some centres unmarked)
Test Value: ≥ 10 µM
//
Compound: COc1ccccc1-c1csc(C(=O)N2CCC3(CC3)C[C@H]2C(=O)N[C@@H](C[C@@H]2CCNC2=O)C(=O)C(=O)NC2CC2)n1
Test Value: ≥ 10 µM
//
Compound: O=C(NC1CC1)C(=O)[C@H](C[C@@H]1CCNC1=O)NC(=O)[C@@H]1CC2(CCN1C(=O)c1nc(C3CCCCC3)cs1)CC2
Test Value: 1 to 10 µM
//
Compound: O=C(NC1CC1)C(=O)C(C[C@@H]1CCNC1=O)NC(=O)[C@@H]1CC2(CCN1C(=O)c1cc3ccccc3n1-c1ccccc1)CC2 (some centres unmarked)
Test Value: ≥ 10 µM
//
Compound: O=C(NC1CC1)C(=O)[C@H](C[C@@H]1CCNC1=O)NC(=O)[C@@H]1CC2(CCN1C(=O)c1csc(-c3cccc(Cl)c3)n1)CC2
Test Value: ≥ 10 µM
